- Tested on: SF-295 CNS
- assay-procedure: NCI tumour cell line growth inhibition, 48 h; in the data active = GI50 below about 0.43 µM; inactive = the rest
Result category, one only: active, inactive

[[record]]
molecule = "CN1CCN(CCCn2c(=O)c3sc4ncccc4c3n3nnc(-c4ccccc4)c23)CC1"
experimental_target = "SF-295 CNS"
class_assignment = "inactive"

[[record]]
molecule = "COc1ccc(-c2nnc(COc3ccc(C(=O)/C=C/c4ccco4)cc3)o2)cc1"
experimental_target = "SF-295 CNS"
class_assignment = "inactive"

[[record]]
molecule = "CCN1CCN(c2nc(C)cc(N(CCNc3ccnc4cc(Cl)ccc34)Cc3ccc4c(c3)OCO4)n2)CC1"
experimental_target = "SF-295 CNS"
class_assignment = "inactive"

[[record]]
molecule = "O=C(CSc1ccc(Cl)cc1)Nc1ccc(-c2nc3ccccc3s2)c(Cl)c1"
experimental_target = "SF-295 CNS"
class_assignment = "inactive"

[[record]]
molecule = "O=C1c2cc3c(cc2-c2c1c1ccc(F)cc1c(=O)n2CCCNCCO)OCO3"
experimental_target = "SF-295 CNS"
class_assignment = "active"


Input: Please indicate how the test categorized Cn1cnc([N+](=O)[O-])c1S(=O)(=O)Oc1cccc2ccccc12 .
Output: inactive

Input: Hi, sorry to bother you, what did the test record for O=c1c2sccc2n(CC2COc3ccccc3O2)c(=O)n1O (stereo unspecified) ?
Output: inactive

Input: What classification did C=C1NC(=O)C(C(C)CC)NC(=O)C2CSCC(NC(=O)CCC(=O)O)C(=O)NC(Cc3ccccc3)C(=O)NC(C)C(=O)NC(CC(C)CC)C(=O)NC(C(=O)NC(Cc3ccccc3)C(=O)N3CCCC3C(=O)N2)C(C)OC(=O)C(CO)NC(=O)C(C(O)COC)N(C)C(=O)C(C(C)C)NC(=O)C(CC(C)CC)NC1=O (stereo unspecified) end up with in this test?
Output: active

---

For each of the molecules below, state its GI50.
- Tested on: HCT-15 colon
- assay-procedure: NCI tumour cell line growth inhibition, 48 h

Worked set:
[[record]]
smiles_entry = "CC(C)[C@H]1COC(=O)N1[C@@H]1C(=O)N([C@@H](CCC(=O)N2CCN(C3CCCC3)CC2)C(=O)N[C@@H]2CCCc3ccccc32)[C@@H]1/C=C/c1cccc(Br)c1"
measure_name = "GI50"
measured = "1690 nM"

[[record]]
smiles_entry = "Fc1cc2[nH]ncc2c2c3c(c(-c4cn[nH]c4)nc12)CCCC3"
measure_name = "GI50"
measured = "560 nM"

[[record]]
smiles_entry = "Nc1ncnc2n[nH]c(Nc3ccc(F)cc3)c12"
measure_name = "GI50"
measured = "8600 nM"

[[record]]
smiles_entry = "Cc1c2c(nn1-c1ccc(S(=O)(=O)/N=C3\\SCCC(=O)N3c3ccccc3)cc1)-c1ccccc1CC2"
measure_name = "GI50"
measured = "> 100000 nM"


For the next question, use this molecule.
Input: Indicate the recorded GI50 value for this molecule: COc1cc(/C=C2\CN(S(=O)(=O)c3ccccc3)C/C(=C\c3cc(CN4CCCC4)c(O)c(OC)c3)C2=O)cc(CN2CCCC2)c1O
Output: 2300 nM

---

- Test system: MCF7 breast
- assay-procedure: NCI tumour cell line growth inhibition, 48 h
measure-name: TGI

Here is how some molecules turned out for TGI.
[[record]]
molecule = "CSC(=S)N(C)C"
measured = "> 100 µM"

[[record]]
molecule = "CCOC(=O)c1ccc(NCC#CCN2CCOCC2)cc1"
measured = "> 100 µM"

[[record]]
molecule = "CC1OC(OC2C(OC(=O)[C@]34CCC(C)(C)C[C@H]3C3=CC[C@@H]5[C@@]6(C)CC[C@H](OC7OC(C(=O)O)C(O)C(O)C7O)C(C)(C)[C@@H]6CC[C@@]5(C)[C@]3(C)C[C@H]4O)OCC(O)C2O)C(O)C(OC2OCC(O)(CO)C2O)C1OC1OCC(O)C(O)C1O (some centres undefined)"
measured = "18.3 µM"

[[record]]
molecule = "CN(C(=O)c1ccc(C(F)(F)F)cc1)c1ccc(Oc2ccc3c(c2)cc(C(=O)N2CCN(Cc4ccc(OC(F)F)cc4)CC2)n3C)nc1"
measured = "43.4 µM"


// for each molecule below, give its TGI
1. CCN(CC)CCn1c(=O)c2cccnc2n2c3c(=O)n(C)c(=O)n(C)c3nc12
2. COc1ccc2c(c1)OCC1Cc3ccccc3OC21 (centres undefined)
3. O=C(CCc1nnc2sc(-c3ccc(Cl)cc3Cl)nn12)c1nc2ncccc2[nH]1
4. OC(c1nc2ccccc2[nH]1)C(O)C(O)C(O)c1nc2ccccc2[nH]1 (centres undefined)
5. CCC1(CC)C(=O)NN(C(=O)c2ccccc2)C1=O

Output:
["> 100 µM", "> 100 µM", "> 100 µM", "> 100 µM", "> 100 µM"]

---

- Tested on: PC-3 prostate
- assay-procedure: NCI tumour cell line growth inhibition, 48 h
measure-name: TGI

Completed entries (count: 5):
[[record]]
molecule = "COc1ncnc(NS(=O)(=O)c2ccc(N=C3C(=O)N(CN4CCN(c5c(F)cc6c(=O)c(C(=O)O)cn(C7CC7)c6c5OC)CC4C)c4ccc(Cl)cc43)cc2)c1OC (centres undefined)"
measure_name = "TGI"
measured = "> 50 µM"

[[record]]
molecule = "COC1=CC(=O)C(C2CC(=O)c3c(O)cc(O)cc3O2)=CC1=O (centres undefined)"
measure_name = "TGI"
measured = "31.1 µM"

[[record]]
molecule = "CCOC(=O)c1c(C)nc2c3ccccc3c(C#N)c(C)n12"
measure_name = "TGI"
measured = "> 100 µM"

[[record]]
molecule = "Cc1ccc(C(=C2Sc3ccccc3S2)C(=C2Sc3ccccc3S2)c2ccc(C)s2)s1"
measure_name = "TGI"
measured = "> 100 µM"

[[record]]
molecule = "COc1cc(NCc2ccc3oc(=O)c(-c4ccccc4)nc3c2)cc(OC)c1OC"
measure_name = "TGI"
measured = "> 10 µM"


Respectfully, I request TGI for each entry included below.
1. Cn1cnc([N+](=O)[O-])c1S(=O)(=O)Oc1cccc2ccccc12
2. COc1ccc([C@H]2[C@@H](F)C(=O)N2c2cc(OC)c(OC)c(OC)c2)cc1F
3. Cc1c2c(nn1-c1ccc(S(=O)(=O)/N=C3\SCCC(=O)N3c3ccccc3)cc1)-c1ccccc1CC2
4. CCN(CC)CCN(C(=Nc1ccccc1)N1CCOCC1)c1ccccc1

Output:
1: 44.4 µM; 2: > 100 µM; 3: > 100 µM; 4: > 100 µM

---

- Tested on: HCT-15 colon
- assay-procedure: NCI tumour cell line growth inhibition, 48 h
Would you kindly list TGI for each of these compounds?

[[record]]
compound = "Cc1ccc2c(c1)C(=O)C1(Cc3ccccc3C1=O)C2 (centres undefined)"
experimental_target = "HCT-15 colon"
measured = "> 100 µM"

[[record]]
compound = "CC(C)[C@H]1COC(=O)N1[C@@H]1C(=O)N([C@@H](CCC(=O)N2CCN(C3CCCC3)CC2)C(=O)N[C@@H]2CCCc3ccccc32)[C@@H]1/C=C/c1cccc(Br)c1"
experimental_target = "HCT-15 colon"
measured = "3.63 µM"

[[record]]
compound = "COc1ccc(/C=C(/C#N)n2nnc3cccc(F)c32)cc1"
experimental_target = "HCT-15 colon"
measured = "> 100 µM"

[[record]]
compound = "O=C(O)/C=C(/C(=O)O)C12CCN3CC4=CCOC5CC(=O)NC1C5C4CC32 (centres undefined)"
experimental_target = "HCT-15 colon"
measured = "> 100 µM"

[[record]]
compound = "COc1ccc(C2=N/C(=C\\c3ccccc3)C(=O)O2)cc1"
experimental_target = "HCT-15 colon"
measured = "> 100 µM"

[[record]]
compound = "O=[N+]([O-])C(/C=C(\\Cl)n1nnc2ccccc21)=C(/Cl)n1nnc2ccccc21"
experimental_target = "HCT-15 colon"
measured = "> 100 µM"

[[record]]
compound = "Oc1ccc([I+]c2ccccc2)cc1O"
experimental_target = "HCT-15 colon"
measured = "> 100 µM"

[[record]]
compound = "COc1cc(/C=C/c2cc(O)c(C(C)=O)c(O)c2)cc2c1O[C@]1(C)CC[C@@H](O)C(C)(C)[C@H]1C2"
experimental_target = "HCT-15 colon"
measured = "35.7 µM"


Input: Give the reported TGI for this compound. CN(C)C1(N(C)C)Oc2c(c(=O)n(C)c(=O)n2C)C(c2ccc(Br)cc2)C1(F)F (centres undefined)
Output: > 100 µM

---

- Test system: HOP-62 NSCLC
- assay-procedure: NCI tumour cell line growth inhibition, 48 h
Answer each item with its documented TGI.

# map each compound to its TGI
1. CC1=NS(=O)(=O)c2ccccc2N1
2. Nc1ncnc2n[nH]c(Nc3ccc(F)cc3)c12

Output:
> 100 µM
> 100 µM

# map each compound to its TGI
1. NC1(C(=O)OCc2ccccc2)CCCC1
2. N=C(N)SCc1ccc2c(c1)Sc1ccccc1O2

Output:
1: 46.7 µM; 2: 34.1 µM
